Catalogue of fold induction at 50 µM values
test system: S. aureus strain USA300-0114; assay: AK assay 384-well format, Prestwick library screening; assay type: cell-based, Staphylococcus aureus; details: Staphylococcus aureus, USA300, 3 h; planktonic S. aureus; 50 μM final drug concentration; cutoff for positive-scoring molecules 3-fold increase; read-out: AK-based Prestwick Library Screening Results, S. aureus (increase in extracellular AK activity)
Counter-ions that a name gives are not always drawn.
Form: value (number only, do not type unit).

Recorded results for 4 compounds are shown here.
{"compound": "CC(=O)Nc1ccc(OCC(O)CNC(C)C)cc1 (stereo not drawn)", "fold induction at 50 µM": 0.6}
{"compound": "CN(C)CCC=C1c2ccccc2C=Cc2ccccc21 [Cyclobenzaprine hydrochloride]", "fold induction at 50 µM": 1}
{"compound": "CC(=O)OCC(=O)NCCCOc1cccc(CN2CCCCC2)c1 [Roxatidine Acetate HCl]", "fold induction at 50 µM": 0.6}
{"compound": "NS(=O)(=O)c1cc(C2(O)NC(=O)c3ccccc32)ccc1Cl (stereo not drawn)", "fold induction at 50 µM": 0.7}

Ask: Requested read-out: fold induction at 50 µM. Entry: C[C@@H]1CCC[C@H](C)N1NC(=O)c1ccc(Cl)c(S(N)(=O)=O)c1 [Clopamide]
Result: 0.7

Ask: Bench note: what fold induction at 50 µM did CN1CCCC(CC2c3ccccc3Sc3ccccc32)C1 (stereo not drawn) [Metixene hydrochloride] show?
Result: 0.7

Ask: Param item = "CCOC(=O)n1ccn(C)c1=S" ; retrieve measured fold induction at 50 µM.
Result: 0.6

Ask: I'd like to know its fold induction at 50 µM. The compound in question is CC(Cc1cccc(C(F)(F)F)c1)NCCOC(=O)c1ccccc1 (stereo not drawn) [Benfluorex hydrochloride]
Result: 1.2

Ask: What value of measured fold induction at 50 µM is listed for "NC(=O)N/N=C/c1ccc([N+](=O)[O-])o1" ?
Result: 0.5

Ask: What value of fold induction at 50 µM has been reported for the following compound? "O=C(O)CCCC[C@@H]1SC[C@@H]2NC(=O)N[C@@H]21"
Result: 1.4

Ask: Quick one: fold induction at 50 µM of "C=C(C)[C@@H]1CC[C@]2(C(=O)O)CC[C@]3(C)[C@H](CC[C@@H]4[C@@]5(C)CC[C@H](O)C(C)(C)[C@@H]5CC[C@]43C)[C@@H]12" ?
Result: 0.1

Ask: Quick check: fold induction at 50 µM of N=C(N)NC(=O)Cc1c(Cl)cccc1Cl [Guanfacine hydrochloride] ?
Result: 0.6

Ask: What does the data say about its fold induction at 50 µM? Entry: CN(C)C(=O)Oc1cc(OC(=O)N(C)C)cc(C(O)CNC(C)(C)C)c1 (stereo not drawn) [Bambuterol hydrochloride]
Result: 1.2

Ask: Need fold induction at 50 µM, item COc1cc(OC)c(C(=O)CCCN2CCCC2)c(OC)c1 [Buflomedil hydrochloride]
Result: 0.6

Ask: # get_value(readout='fold induction at 50 µM', item= CC(=O)N(CC(O)CO)c1c(I)c(C(=O)NCC(O)CO)c(I)c(C(=O)NCC(O)CO)c1I (stereo not drawn) [Iohexol] )
Result: 0.7

----------
test system: E. cloacae; assay: AK assay 384-well format, Prestwick library screening; assay type: cell-based, Enterobacter cloacae; settings: Enterobacter cloacae, 3 h; 50 μM final drug concentration; 384-well format; cutoff for positive-scoring molecules 3-fold increase; read-out: AK-based Prestwick Library Screening Results, E. cloacae (increase in extracellular AK activity)
Counter-ions that a name gives are not always drawn.
Examples of molecules with documented fold induction at 50 µM follow.
Returns: the value as a bare number; no unit string appended.

{"molecule": "C#C[C@]1(O)CC[C@H]2[C@@H]3CCC4=C(CCC(=O)C4)[C@H]3CC[C@@]21C", "fold induction at 50 µM": 1}
{"molecule": "OC(c1cc(C(F)(F)F)nc2c(C(F)(F)F)cccc12)C1CCCCN1 (centres unmarked) [Mefloquine hydrochloride]", "fold induction at 50 µM": 1.2}
{"molecule": "CS(=O)(=O)c1ccc([C@@H](O)[C@@H](CO)NC(=O)C(Cl)Cl)cc1", "fold induction at 50 µM": 1.4}
{"molecule": "C1CCc2nnnn2CC1", "fold induction at 50 µM": 0.6}

Continue with the next molecule.
Ask: # lookup: fold induction at 50 µM of CC(C)(C)NCC(O)c1ccc(O)c(CO)c1 (centres unmarked)
Result: 1.4

----------
test system: S. aureus strain USA300-0114; experiment: AK assay 384-well format, Prestwick library screening; type: cell-based, Staphylococcus aureus; conditions: Staphylococcus aureus, USA300, 3 h; 50 μM final drug concentration; 384-well format; cutoff for positive-scoring molecules 3-fold increase; read-out: AK-based Prestwick Library Screening Results, S. aureus (increase in extracellular AK activity)
Structures can show the parent of a compound that is named as a salt.
Output 1 for fold induction at 50 µM not less than 0.7; output 0 otherwise.

{"compound": "CC(NCCC(c1ccccc1)c1ccccc1)c1ccccc1 (centres unmarked) [Fendiline hydrochloride]", "class label": 1}
{"compound": "CN/C(=N/CCSCc1nc[nH]c1C)NC#N", "class label": 1}
{"compound": "O=C(CCCN1CCC(O)(c2ccc(Cl)cc2)CC1)c1ccc(F)cc1", "class label": 1}
{"compound": "CC(NC(C)(C)C)C(=O)c1cccc(Cl)c1 (centres unmarked) [Bupropion hydrochloride]", "class label": 0}
{"compound": "OCCN1CCN(CCCN2c3ccccc3Sc3ccc(Cl)cc32)CC1", "class label": 1}
{"compound": "CC[C@@H](CO)NCCN[C@@H](CC)CO [Ethambutol dihydrochloride]", "class label": 0}

Now examine the next entry.
Ask: Is fold induction at 50 µM at least 0.7? Consider NCCc1cc[nH]n1 [Betazole hydrochloride]
Result: 1

----------
system: P. aeruginosa; assay: AK assay 384-well format, Prestwick library screening; type: cell-based, Pseudomonas aeruginosa; settings: Pseudomonas aeruginosa, 3 h; 50 μM final drug concentration; planktonic; cutoff for positive-scoring molecules 3-fold increase; read-out: AK-based Prestwick Library Screening Results, P. aeruginosa (fold increase in extracellular AK activity)
Structures can show the parent of a compound that is named as a salt.
recorded metric: fold induction at 50 µM
Answer using only a numeral; do not append any unit.

{"molecule": "COc1ccccc1N1CCN(CCCNc2cc(=O)n(C)c(=O)n2C)CC1 [Urapidil hydrochloride]", "fold induction at 50 µM": 1}
{"molecule": "COc1c(O)cc2c(c1O)[C@@H]1O[C@H](CO)[C@@H](O)[C@H](O)[C@H]1OC2=O [Bergenin monohydrate]", "fold induction at 50 µM": 0.8}

Okay, now this molecule:
Ask: Value lookup for fold induction at 50 µM; key = "C[N+]1(C)C[C@H](O)C[C@H]1C(=O)[O-]"
Result: 0.4

----------
Entries and their fold induction at 50 µM values follow.
system: P. aeruginosa; test: AK assay 384-well format, Prestwick library screening; format: cell-based, Pseudomonas aeruginosa; conditions: Pseudomonas aeruginosa, 3 h; planktonic P. aeruginosa; 50 μM final drug concentration; positive cutoff 3-fold increase; read-out: AK-based Prestwick library screening result, P. aeruginosa (fold increase in extracellular AK activity)
Where a name gives a salt, the structure may show the parent alone.

{"compound": "CN[C@H]1CC[C@@H](c2ccc(Cl)c(Cl)c2)c2ccccc21", "target": "P. aeruginosa", "recorded metric": "fold induction at 50 µM", "result": 1.2}
{"compound": "N#Cc1ccc(C(c2ccc(C#N)cc2)n2cncn2)cc1", "target": "P. aeruginosa", "recorded metric": "fold induction at 50 µM", "result": 1}
{"compound": "CN(C)CCOC(=O)C(c1ccccc1)C1(O)CCCC1 (centres unmarked) [Cyclopentolate hydrochloride]", "target": "P. aeruginosa", "recorded metric": "fold induction at 50 µM", "result": 1.1}
{"compound": "CN(C/C=C/c1ccccc1)Cc1cccc2ccccc12 [Naftifine hydrochloride]", "target": "P. aeruginosa", "recorded metric": "fold induction at 50 µM", "result": 0.8}

// next entry
Ask: Look at this compound and give its reported fold induction at 50 µM. CCc1c(C)[nH]c2c1C(=O)C(CN1CCOCC1)CC2 (centres unmarked) [Molindone hydrochloride]
Result: 0.9

----------
Known fold induction at 50 µM of a selection of molecules
test system: A. baumannii strain 98-37-09; test: AK assay 384-well format, Prestwick library screening; assay type: cell-based, Acinetobacter baumannii; settings: Acinetobacter baumannii, 983709, 3 h; 50 μM final drug concentration; cutoff for positive-scoring molecules 3-fold increase; read-out: AK-based Prestwick Library Screening Results, A. baumannii (fold increase in extracellular AK activity)
Structures can show the parent of a compound that is named as a salt.
Lab note: write the figure by itself, no unit.

{"molecule": "CCCCC(CC)CNC(=N)NC(=N)NCCCCCCNC(=N)NC(=N)NCC(CC)CCCC (stereo not shown) [Alexidine dihydrochloride]", "measured number": 12.3}

Ask: Would you mind telling me what fold induction at 50 µM value was observed for CCN(CC)CCOC(=O)C(c1ccccc1)C1CCCCC1 (stereo not shown) [Drofenine hydrochloride] ?
Result: 1.3

Ask: Reported fold induction at 50 µM, molecule CC(=O)[C@@]1(O)CC[C@H]2[C@@H]3C[C@H](C)C4=CC(=O)C=C[C@]4(C)[C@@]3(F)[C@@H](O)C[C@@]21C [Fluorometholone] : ____
Result: 1.3

Ask: Fill blank: measured fold induction at 50 µM of the molecule CCC(=O)O[C@]1(C(=O)CCl)[C@@H](C)C[C@H]2[C@@H]3CCC4=CC(=O)C=C[C@]4(C)[C@@]3(F)[C@@H](O)C[C@@]21C [Clobetasol propionate] is ____.
Result: 1.3

Where do the numbers come from? From patent US10004701B2.
